Target: human IDO1 (Homo sapiens, UniProt P14902)
Construct: expressed in transfected cells
Sequence (P14902 whole entry): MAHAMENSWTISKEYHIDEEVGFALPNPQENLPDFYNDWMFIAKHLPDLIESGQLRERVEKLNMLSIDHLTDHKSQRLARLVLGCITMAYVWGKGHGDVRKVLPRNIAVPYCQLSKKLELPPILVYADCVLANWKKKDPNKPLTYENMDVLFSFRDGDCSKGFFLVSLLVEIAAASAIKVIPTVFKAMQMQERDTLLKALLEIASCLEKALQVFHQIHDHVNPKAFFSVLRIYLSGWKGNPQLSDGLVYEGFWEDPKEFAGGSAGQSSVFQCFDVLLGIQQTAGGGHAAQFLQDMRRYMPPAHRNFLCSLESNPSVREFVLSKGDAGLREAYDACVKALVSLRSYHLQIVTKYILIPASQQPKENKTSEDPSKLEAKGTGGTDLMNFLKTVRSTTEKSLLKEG
Assay: HEK293 cells stably expressing human IDO1, IDO inhibition assay (kynurenine, Ehrlich reagent)
Assay type: cell-based
Settings: 20 hours incubation, absorbance at 490 nm, read-out: HEK Human IDO-1 Bio Activity (IDO IC50)
pIC50: −log10 of the molar value.
endpointName: pIC50

[[record]]
molecule = "C[C@@H](NC(=O)N(Cc1ccc(CC(=O)O)cc1)[C@H]1CC[C@H](c2ccnc3ccc(F)cc32)CC1)c1ccc(F)cc1"
targetentity = "human IDO1 (Homo sapiens, UniProt P14902)"
endpointname = "pIC50"
result = "> 7.00"

[[record]]
molecule = "O=C(Nc1ccc(Cl)cc1)N(Cc1ccccc1)[C@H]1CC[C@H](c2ccnc3ccc(F)cc32)CC1"
targetentity = "human IDO1 (Homo sapiens, UniProt P14902)"
endpointname = "pIC50"
result = "> 7.00"

[[record]]
molecule = "C[C@H](NC(=O)N[C@H]1CC[C@@H](c2ccnc3ccc(F)cc32)CC1)c1ccc(Cl)cc1"
targetentity = "human IDO1 (Homo sapiens, UniProt P14902)"
endpointname = "pIC50"
result = "> 6.00"


Look up pIC50: CN(C(=O)Nc1ccc(Cl)cc1)[C@H]1CC[C@H](c2ccnc3ccc(F)cc32)CC1
> 7.00

Look up pIC50: CCCCc1ccc(NC(=O)N(C)C2CCN(c3ccnc4ccc(F)cc34)CC2)cc1
> 7.00

Look up pIC50: O=C(Nc1ccc(Cl)cc1F)N(Cc1ccccc1)[C@H]1CC[C@@H](c2ccnc3ccc(F)cc32)CC1
> 7.00

Look up pIC50: CCOc1ccc(NC(=O)N(Cc2ccc(OC)cc2)[C@H]2CC[C@H](c3ccccc3)CC2)cc1
> 6.00

Look up pIC50: CN(C(=O)Nc1ccc(Cl)cc1)C1CCN(c2ccnc3ccc(F)cc23)CC1
> 6.00

Look up pIC50: N#Cc1ccc(NC(=O)N(Cc2ccccc2)[C@H]2CC[C@H](c3ccnc4ccc(F)cc43)CC2)cc1
> 5.00

Look up pIC50: COc1ccc(CN(C(=O)N[C@H](C)c2ccc(F)cc2)C2CCC(c3ccccc3)CC2)cc1 (stereo partly shown)
> 7.00

Look up pIC50: CCN(C(=O)Nc1ccc(Cl)cc1)[C@H]1CC[C@@H](c2ccnc3ccc(F)cc32)CC1
> 6.00

Look up pIC50: COc1ccc(CN(C(=O)Nc2ccc(Cl)cc2)[C@H]2CC[C@H](c3ccccc3)CC2)cc1
> 7.00

Look up pIC50: O=C(O)Cc1ccc(CN(C(=O)Nc2ccccc2)[C@H]2CC[C@H](c3ccnc4ccc(F)cc43)CC2)cc1
> 7.00

Look up pIC50: O=C(O)Cc1ccc(CN(C(=O)Nc2ccc(Cl)cc2)[C@H]2CC[C@@H](c3ccnc4ccc(F)cc43)CC2)cc1
> 5.00

Look up pIC50: C[C@@H](NC(=O)N(Cc1ccccc1)[C@H]1CC[C@H](c2ccnc3ccc(F)cc32)CC1)c1ccc(F)cc1
> 6.00

Look up pIC50: O=C(O)Cc1ccc(CN(C(=O)Nc2ccc(Cl)cc2)[C@H]2CC[C@H](c3ccnc4ccc(F)cc43)CC2)cc1
> 6.00

Look up pIC50: CN(C(=O)Nc1ccc(OC(F)(F)F)cc1)C1CCN(c2ccnc3ccc(F)cc23)CC1
> 6.00
